All figures here come from patent US8933094B2.

- TESTED TARGET: human mGlu5a receptor (Homo sapiens)
- Construct: expressed in transfected cells
- Sequence (P41594 21-1180 isoform P41594-2 limits assumed): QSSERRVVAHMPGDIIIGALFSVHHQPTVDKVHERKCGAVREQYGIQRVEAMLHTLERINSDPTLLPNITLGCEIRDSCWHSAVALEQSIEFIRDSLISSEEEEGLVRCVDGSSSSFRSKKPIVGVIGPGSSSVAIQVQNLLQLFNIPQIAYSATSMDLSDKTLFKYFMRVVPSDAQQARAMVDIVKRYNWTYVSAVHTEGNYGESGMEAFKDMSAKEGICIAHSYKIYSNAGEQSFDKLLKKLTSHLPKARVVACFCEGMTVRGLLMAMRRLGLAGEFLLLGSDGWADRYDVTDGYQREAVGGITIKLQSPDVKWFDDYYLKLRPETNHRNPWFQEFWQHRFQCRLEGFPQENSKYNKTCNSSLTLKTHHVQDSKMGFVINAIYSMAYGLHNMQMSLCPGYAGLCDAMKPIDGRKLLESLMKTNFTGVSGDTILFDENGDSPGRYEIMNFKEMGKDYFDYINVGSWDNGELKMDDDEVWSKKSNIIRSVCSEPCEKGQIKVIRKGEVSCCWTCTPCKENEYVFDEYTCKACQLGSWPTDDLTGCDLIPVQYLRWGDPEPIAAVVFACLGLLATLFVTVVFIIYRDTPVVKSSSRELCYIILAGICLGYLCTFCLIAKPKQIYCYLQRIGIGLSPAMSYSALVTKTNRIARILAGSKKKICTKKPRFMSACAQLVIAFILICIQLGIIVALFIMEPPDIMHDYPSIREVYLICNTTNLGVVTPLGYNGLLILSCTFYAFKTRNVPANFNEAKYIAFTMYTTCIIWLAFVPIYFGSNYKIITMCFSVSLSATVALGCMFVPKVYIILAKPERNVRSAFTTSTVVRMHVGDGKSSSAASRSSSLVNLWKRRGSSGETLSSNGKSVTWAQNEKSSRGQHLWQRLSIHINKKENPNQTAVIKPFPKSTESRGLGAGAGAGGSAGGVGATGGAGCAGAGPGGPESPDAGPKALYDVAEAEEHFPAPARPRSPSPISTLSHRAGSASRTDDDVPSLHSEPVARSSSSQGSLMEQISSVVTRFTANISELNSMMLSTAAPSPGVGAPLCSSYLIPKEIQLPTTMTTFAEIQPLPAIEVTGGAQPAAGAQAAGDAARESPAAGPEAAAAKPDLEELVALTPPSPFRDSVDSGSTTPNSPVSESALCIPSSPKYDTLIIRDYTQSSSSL
- ASSAY PROTOCOL: Intracellular Ca2+ mobilization assay (mGlu5 PAM)
- Assay type: cell-based
- STUDY CONDITIONS: maximal response in % of the maximal stimulatory effect obtained with saturating concentrations of L-glutamate; read-out: Eff. (%)
MEASURE: Emax (%)

Known results for compounds:
N#Cc1cnn2cc(C#Cc3ccccc3)cnc12 [Example 30]
63
CC(C)(C)c1cc2ncc(C#Cc3cc(F)ccc3F)cn2n1 [Example 37]
65
Clc1cccc(C#Cc2cnc3nc(N4CCOCC4)nn3c2)c1 [Example 50]
88
Cc1cc2ncc(C#Cc3ccccc3F)cn2n1 [Example 3]
81
Cc1ccc(C#Cc2cnc3cc(C(C)(C)C)nn3c2)cc1 [Example 19]
68
CC(C)(C)c1cc2ncc(C#Cc3ccccc3)cn2n1 [Example 9]
75
CC(C)(C)c1cc2ncc(C#Cc3cccnc3)cn2n1 [Example 13]
88
Cc1cccc(C#Cc2cnc3nc(N4CCOCC4)nn3c2)c1 [Example 48]
84

a = CC(C)(C)c1nc2ncc(C#Cc3cncc(Cl)c3)cn2n1 [Example 46]
b = CC(C)(C)c1cc2ncc(C#Cc3ccc(N)cc3)cn2n1 [Example 27]
Lab note: check whether a or b shows the higher recorded Emax. I would appreciate it if you answered with the label of your choice.
b

a = CC(C)(C)c1cc2ncc(C#Cc3cncc(F)c3)cn2n1 [Example 29]
b = CC(C)(C)c1cc2ccc(C#Cc3ccccc3)cn2n1 [Example 41]
Would you mind telling me which has the lower recorded Emax between a and b ? Give the label of your selection.
a
(a: 61%, b: 122%)

A = Cc1cc2ncc(C#Cc3ccncc3)cn2n1 [Example 6]
B = C(#Cc1cnc2cc(C3CCOCC3)nn2c1)c1ccccc1 [Example 26]
Out of A and B , name the one with the higher Emax. Pick one; state its label.
B
